// data source = ChEMBL document CHEMBL4052817

- EXPERIMENT: AUC (infinity) in rat at 1 mg/kg, iv
- Assay type: ADME, organism-based
- Set-up: dose 1 mg/kg, time infinity, route intravenous
- RUN PARAMETERS: in vivo
MEASURE NAME: AUC(0-inf) (ng·h/mL)

>>> print(df.to_string())
                               mol_smiles  assay_result
0  O=C1C[C@H](c2c[nH]c3ccc(F)cc23)C(=O)N1          2270

* * *

Listed compounds paired with reported IC50
- MEASUREMENT TARGET: UniProt P14902
- Sequence (P14902 whole entry): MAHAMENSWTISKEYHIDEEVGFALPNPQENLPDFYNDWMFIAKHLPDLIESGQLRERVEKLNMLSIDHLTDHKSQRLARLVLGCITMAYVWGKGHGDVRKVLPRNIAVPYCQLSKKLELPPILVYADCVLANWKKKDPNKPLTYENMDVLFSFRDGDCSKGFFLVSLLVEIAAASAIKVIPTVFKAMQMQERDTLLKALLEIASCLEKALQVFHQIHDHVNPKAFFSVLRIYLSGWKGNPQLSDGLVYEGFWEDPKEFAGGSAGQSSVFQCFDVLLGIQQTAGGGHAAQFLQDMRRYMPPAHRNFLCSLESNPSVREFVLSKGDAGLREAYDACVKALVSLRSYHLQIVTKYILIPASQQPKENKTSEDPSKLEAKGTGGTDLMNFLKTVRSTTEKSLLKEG
- EXPERIMENT: Inhibition of human recombinant IDO-1 using L-Trp as substrate after 15 mins by PDMAB-based assay
MEASURE NAME: IC50

                                   compound  measurement_target  assay_result
0  O=C1CC(c2cccc3cc(Cl)ccc23)C(=O)N1 (stereo not drawn)      UniProt P14902       > 50 µM
1  O=C1CC(c2cccc3ccc(Cl)cc23)C(=O)N1 (stereo not drawn)      UniProt P14902       > 50 µM
2  O=C1CC(c2c[nH]c3ccc(C(F)(F)F)cc23)C(=O)N1 (stereo not drawn)      UniProt P14902        9.7 µM

* * *

- EXPERIMENT: Oral bioavailability in mouse at 5 mg/kg
- Format: ADME, organism-based
- RUN PARAMETERS: in vivo
MEASURE NAME: bioavailability (%)

In [3]: df
Out[3]:
                            mol_smiles     measure_name  assay_result
0  O=C1C[C@H](c2c[nH]c3ccccc23)C(=O)N1  bioavailability            63

* * *

- EXPERIMENT: Oral bioavailability in mouse at 30 mg/kg
- Assay type: ADME, organism-based
- RUN PARAMETERS: in vivo
MEASURE NAME: bioavailability (%)

>>> df
                            mol_smiles     measure_name  assay_result
0  O=C1C[C@H](c2c[nH]c3ccccc23)C(=O)N1  bioavailability            65

* * *

- EXPERIMENT: Metabolic stability in rat plasma assessed as parent compound remaining after 48 hrs
- Assay type: ADME, cell-free
- RUN PARAMETERS: read-out: Stability
MEASURE NAME: remaining at 48 h (%)

                               mol_smiles  assay_result
0  O=C1C[C@H](c2c[nH]c3ccc(F)cc23)C(=O)N1            27

* * *

- EXPERIMENT: Clearance in mouse
- Format: ADME, organism-based
- RUN PARAMETERS: in vivo
MEASURE NAME: clearance (mL/min/kg)

>>> df
                            mol_smiles        uom  assay_result
0  O=C1C[C@H](c2c[nH]c3ccccc23)C(=O)N1  mL/min/kg          15.6

* * *

- System: Canis familiaris
- EXPERIMENT: AUC (infinity) in beagle dog assessed as (R)-3-(5-fluoro-1H-indol-3-yl)pyrrolidine-2,5-dione at 1 mg/kg, iv by LC-MS/MS method
- Format: ADME, organism-based, Canis lupus familiaris
- Design: dose 1 mg/kg, route intravenous, time infinity
- RUN PARAMETERS: in vivo
MEASURE NAME: AUC (ng·h/mL)

In [3]: df
Out[3]:
                                   compound  measure_name      uom  assay_result
0  O=C1CC(c2c[nH]c3ccc(F)cc23)C(=O)N1 (stereo unspecified) [PF-06840003]           AUC  ng·h/mL           423

* * *

- MEASUREMENT TARGET: Tryptophan 2,3-dioxygenase (Homo sapiens, UniProt P48775)
- Sequence (P48775 whole entry): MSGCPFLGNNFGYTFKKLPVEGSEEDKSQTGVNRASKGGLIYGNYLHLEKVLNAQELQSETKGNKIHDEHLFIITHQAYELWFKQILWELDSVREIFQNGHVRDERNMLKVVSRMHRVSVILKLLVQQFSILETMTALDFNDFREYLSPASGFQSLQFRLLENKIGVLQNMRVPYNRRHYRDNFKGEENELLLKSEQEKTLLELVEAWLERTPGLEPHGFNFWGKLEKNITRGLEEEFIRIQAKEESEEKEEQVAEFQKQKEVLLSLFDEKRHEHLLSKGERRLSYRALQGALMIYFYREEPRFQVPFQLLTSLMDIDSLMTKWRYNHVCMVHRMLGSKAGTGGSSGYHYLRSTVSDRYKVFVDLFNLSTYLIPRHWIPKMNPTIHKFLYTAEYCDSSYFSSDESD
MEASURE NAME: IC50 (µM)

>>> print(df.to_string())
                                   molecule  assay_result
0  O=C1CC(c2c[nH]c3ccc(F)cc23)C(=O)N1 (stereo unspecified)           140

* * *

- MEASUREMENT TARGET: Cytochrome P450 3A4 (Homo sapiens, UniProt P08684)
- Sequence (P08684 whole entry): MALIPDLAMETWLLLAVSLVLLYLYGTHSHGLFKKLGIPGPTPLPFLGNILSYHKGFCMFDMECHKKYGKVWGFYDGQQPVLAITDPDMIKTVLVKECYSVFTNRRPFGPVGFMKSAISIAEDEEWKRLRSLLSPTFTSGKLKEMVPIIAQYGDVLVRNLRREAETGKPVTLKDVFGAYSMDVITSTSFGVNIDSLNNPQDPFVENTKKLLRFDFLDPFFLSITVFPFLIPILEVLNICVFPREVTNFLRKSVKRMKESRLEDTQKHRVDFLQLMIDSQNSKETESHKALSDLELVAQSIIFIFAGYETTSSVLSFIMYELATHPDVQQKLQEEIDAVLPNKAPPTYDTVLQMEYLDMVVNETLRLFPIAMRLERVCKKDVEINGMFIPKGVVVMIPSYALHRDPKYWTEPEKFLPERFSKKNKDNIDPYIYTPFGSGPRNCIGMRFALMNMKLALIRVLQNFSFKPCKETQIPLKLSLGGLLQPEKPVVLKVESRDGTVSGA
MEASURE NAME: IC50

>>> df
                            mol_smiles  measure_name  assay_result
0  O=C1C[C@H](c2c[nH]c3ccccc23)C(=O)N1          IC50       > 10 µM

* * *

- EXPERIMENT: Fraction unbound in human plasma after 48 hrs
- Type: ADME, cell-free
MEASURE NAME: fraction unbound at 48 h

>>> df
                                mol_smiles  assay_result
0   O=C1C[C@H](c2c[nH]c3ccc(F)cc23)C(=O)N1         0.449
1  O=C1C[C@@H](c2c[nH]c3ccc(F)cc23)C(=O)N1         0.286

* * *

- EXPERIMENT: Drug metabolism in human hepatocytes in presence of CYP inhibitor ABT
- Format: ADME, cell-based, Hepatocyte
- RUN PARAMETERS: with ABT (CYP inhibitor), read-out: Drug metabolism
MEASURE NAME: metabolised

>>> df
                               mol_smiles  assay_result
0  O=C1C[C@H](c2c[nH]c3ccc(F)cc23)C(=O)N1           39%

* * *

- EXPERIMENT: Inhibition of dog IDO-1 using tryptophan as substrate after 22 mins by LC-MS/MS method
MEASURE NAME: IC50 (nM)

In [3]: df
Out[3]:
                               mol_smiles  uom  assay_result
0  O=C1C[C@H](c2c[nH]c3ccc(F)cc23)C(=O)N1   nM           200

* * *

- EXPERIMENT: Apparent permeability across human Caco2 cells
- Format: ADME, cell-based
- RUN PARAMETERS: Caco-2
MEASURE NAME: Papp (nm/s)

                            mol_smiles  measure_name  assay_result
0  O=C1C[C@H](c2c[nH]c3ccccc23)C(=O)N1          Papp           280

* * *

- EXPERIMENT: Metabolic stability in dog plasma assessed as parent compound remaining after 48 hrs
- Type: ADME, cell-free, Canis lupus familiaris
- RUN PARAMETERS: read-out: Stability
MEASURE NAME: remaining at 48 h (%)

In [3]: df
Out[3]:
                               mol_smiles       measure_name  assay_result
0  O=C1C[C@H](c2c[nH]c3ccc(F)cc23)C(=O)N1  remaining at 48 h            30

* * *

- EXPERIMENT: AUC (infinity) in dog at 1 mg/kg, iv
- Format: ADME, organism-based, Canis lupus familiaris
- Set-up: dose 1 mg/kg, route intravenous, time infinity
- RUN PARAMETERS: in vivo
MEASURE NAME: AUC(0-inf)

>>> print(df.to_string())
                               mol_smiles  measure_name  assay_result
0  O=C1C[C@H](c2c[nH]c3ccc(F)cc23)C(=O)N1    AUC(0-inf)   696 ng·h/mL

* * *

- EXPERIMENT: Metabolic stability in dog acidified plasma assessed as parent compound remaining after 48 hrs
- Type: ADME, cell-free, Canis lupus familiaris
- RUN PARAMETERS: read-out: Stability
MEASURE NAME: remaining at 48 h (%)

In [3]: df
Out[3]:
                               mol_smiles       measure_name  assay_result
0  O=C1C[C@H](c2c[nH]c3ccc(F)cc23)C(=O)N1  remaining at 48 h          93.5

* * *

- EXPERIMENT: AUC (infinity) in cynomolgus monkey at 1 mg/kg, iv
- Format: ADME, organism-based, Macaca fascicularis
- Set-up: dose 1 mg/kg, route intravenous, time infinity
- RUN PARAMETERS: in vivo
MEASURE NAME: AUC(0-inf) (ng·h/mL)

In [3]: df
Out[3]:
                               mol_smiles  assay_result
0  O=C1C[C@H](c2c[nH]c3ccc(F)cc23)C(=O)N1          6810

* * *

- EXPERIMENT: Drug metabolism in human hepatocytes in absence of CYP inhibitor ABT
- Type: ADME, cell-based, Hepatocyte
- RUN PARAMETERS: read-out: Drug metabolism
MEASURE NAME: metabolised (%)

                               mol_smiles  assay_result
0  O=C1C[C@H](c2c[nH]c3ccc(F)cc23)C(=O)N1            61
